Read-out: Interleukin-1 alpha (IL1a), IL1A (gene 3552)
ASSAY: BSK_LPS_IL1a: BioMAP Diversity Plus: LPS Assay for Interleukin-1 alpha (IL1a) Biomarker Activity (AID 2283080)
CONDITION LABEL: primary human HUVEC with PBMC; actives raise or lower the signal
The source made the active and inactive calls. How the source made its calls: active means hit-call score of the fitted dose curve at least 0.9, where 1 is the maximum; inactive means score below 0.9.
OBSERVATION TYPE: outcome

As a guide, the following entries are already answered.
> print(dat)
                            chemical.smiles  measurement
1  Cc1nc(C)nc(N2C[C@@H](C)N(c3ccnc([C@@H](C)O)n3)[C@@H](C)C2)n1     inactive
2                                CN1CCCC1=O     inactive
3  CCCCc1ccc2c(n1)[C@@H](c1ccc(OC)cc1C[C@H](C)C(=O)O)[C@H](C(=O)O)[C@H]2c1ccc2c(c1)OCO2     inactive
4  CN1CCN(Cc2cc(-c3ccc4[nH]c(=O)oc4c3)co2)[C@@H](c2ccc(F)cc2)C1     inactive

Switching to the query record.
Problem: // Input: `CCCCCCCCCCCCCCCC` . Output its outcome only.
Solution: inactive

* * *

Read-out: Lipase C (LIPC), LIPC (gene 3990)
ASSAY: LTEA_HepaRG_LIPC: Life Technologies and Expression Analysis (LTEA) Assay for Lipase C (LIPC) using HepaRG (AID 2283514)
CONDITION LABEL: mRNA level, 48 h; actives raise or lower the signal
Activity calls are given as the source filed them. Rule for the calls: active = hit-call score of the fitted dose curve at least 0.9, where 1 is the maximum; inactive = score below 0.9.
OBSERVATION TYPE: AC50

Example compounds with recorded AC50:
> print(dat)
                                   compound  observation.type       measurement
1                       Cc1ccc(C(C)C)c(O)c1              AC50          inactive
2                            COc1ccc(C)cc1N              AC50          inactive
3         O=C(OCCCCCOC(=O)c1ccccc1)c1ccccc1              AC50   2.1 µM (active)
4  Cc1oc(-c2ccccc2)nc1CCOc1cccc2c1ccn2CCC(=O)O              AC50  79.2 µM (active)
5                                CCCCCCCC=O              AC50          inactive

Problem: Identify measured AC50 associated with `CCNc1cccc(C)c1`
Solution: inactive

Problem: Return the recorded AC50 value; entry: `Nc1nc(N)c2nc(CNc3ccc(C(=O)N[C@@H](CCC(=O)O)C(=O)O)cc3)cnc2n1`
Solution: inactive

Problem: Provide only the value of recorded AC50 for `CCCCCC(=O)O`
Solution: inactive

Problem: Tell me its AC50 given `CC(C)c1ccc(C(=O)N=C(N)N)cc1S(C)(=O)=O` as the entry.
Solution: 0.607 µM (active)

Problem: Annotate the compound `CC1=C(/C=C/C(C)=C/C=C/C(C)=C/CO)C(C)(C)CCC1` with its measured AC50.
Solution: inactive

* * *

ASSAY: Tanguay_ZF_120hpf_JAW_legacy: (Legacy) Oregon State University Tanguay Lab 120 Hour Post-fertilization zebrafish Assay for Jaw Malformation (AID 2283638)
Records with an inconclusive call do not appear. The source made the active and inactive calls. How the source made its calls: active means hit-call score of the fitted dose curve at least 0.9, where 1 is the maximum; inconclusive means response in the unintended direction; inactive means score below 0.9.
Entry note: the call must match one of active, inactive

Problem: Test call for this compound, please: `Cc1ccc(C)c(C)c1`
Solution: inactive

Problem: Record request — test call for `Cc1c(C(=O)O)c(O)cc2c1C(=O)c1c(O)c([C@@H]3O[C@H](CO)[C@@H](O)[C@H](O)[C@H]3O)c(O)c(O)c1C2=O`
Solution: inactive

Problem: How was `Cc1cc(=O)[nH]c(=S)[nH]1` classified in this test?
Solution: inactive

Problem: # lookup: test call for `Cc1ccc2ncccc2c1`
Solution: inactive

Problem: # outcome recorded in this test, key = `Oc1ccc2c(c1)OC[C@@H](N1CCC(O)(c3ccc(F)cc3)CC1)[C@H]2O`
Solution: inactive

Problem: Give the logged outcome of this assay for the following compound: `COc1ccc(C)cc1N`
Solution: inactive

Problem: What is the recorded call for this compound in the test? COCCOC[C@H](CC1(C(=O)NC2CCC(C(=O)O)CC2)CCCC1)C(=O)Oc1ccc2c(c1)CCC2 (some centres not stated)
Solution: inactive

Problem: Call for entry `Cc1cc(NC(=O)C(=O)O)cc(C)c1Oc1ccc(O)c2c1CCC2` :
Solution: active

Problem: Outcome logged for `Nc1ccc2c(c1)C(=O)c1ccccc1C2=O` in this assay:
Solution: inactive

Problem: // outcome(item) with item = `CC1(C)NC(=O)NC1=O`
Solution: inactive

Problem: Please indicate how the test categorized `c1cc(-c2ccncc2)ccn1` .
Solution: inactive

Problem: So what was the verdict on `Cc1oc(-c2ccccc2)nc1CCOc1cccc2c1ccn2CCC(=O)O` in this test?
Solution: inactive

* * *

SYSTEM TESTED: Retinoic acid receptor alpha (Homo sapiens) (UniProt P10276)
Sequence (P10276 whole entry, looked up): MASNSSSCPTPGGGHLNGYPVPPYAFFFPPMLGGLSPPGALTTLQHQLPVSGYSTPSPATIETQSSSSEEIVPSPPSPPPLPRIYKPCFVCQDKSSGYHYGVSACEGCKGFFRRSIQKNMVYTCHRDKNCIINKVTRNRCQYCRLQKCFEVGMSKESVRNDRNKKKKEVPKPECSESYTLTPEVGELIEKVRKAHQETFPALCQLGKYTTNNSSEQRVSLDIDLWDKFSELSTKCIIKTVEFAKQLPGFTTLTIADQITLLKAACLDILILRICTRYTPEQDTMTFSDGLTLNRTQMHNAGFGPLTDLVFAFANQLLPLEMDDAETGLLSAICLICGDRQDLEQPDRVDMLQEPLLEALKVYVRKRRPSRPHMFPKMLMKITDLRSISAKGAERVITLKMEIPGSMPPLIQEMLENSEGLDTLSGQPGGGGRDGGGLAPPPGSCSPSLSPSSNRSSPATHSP
ASSAY: ATG_DR5_RAR_CIS: Attagene CIS-FACTORIAL HepG2 Assay for human Retinoic Acid Receptor Alpha (RARE), DR5 submotif (AID 2282934)
CONDITION LABEL: HepG2 Attagene cis-factorial RARE DR5 reporter, mRNA; actives raise or lower the signal
Activity calls are given as the source filed them. How the source made its calls: active means hit-call score of the fitted dose curve at least 0.9, where 1 is the maximum; inactive means score below 0.9.
Write down the outcome that applies. Available outcomes: active, inactive

Problem: Returns: the outcome recorded for `COc1cc(/C=C/C(=O)CC(=O)/C=C/c2ccc(O)c(OC)c2)ccc1O` in this assay.
Solution: active

Problem: Call for entry `C=CCOC(=O)c1ccccc1C(=O)OCC=C` :
Solution: inactive

Problem: Write down the call the test reported for this compound. Item: `CCCCCCCCCCCCCCCC`
Solution: inactive

Problem: GET /call?item= `Clc1cc(Cl)c(Cl)cc1Cl` returns the recorded outcome of this test.
Solution: inactive

* * *

Read-out: Insulin-like growth factor-binding protein 1 (IGFBP1), IGFBP1 (gene 3484)
ASSAY: LTEA_HepaRG_IGFBP1: Life Technologies and Expression Analysis (LTEA) Assay for Insulin-like growth factor-binding protein 1 (IGFBP1) using HepaRG (AID 2283508)
CONDITION LABEL: mRNA level, 48 h; actives raise or lower the signal
Active and inactive are the calls of the source. The calls were made as follows: active = hit-call score of the fitted dose curve at least 0.9, where 1 is the maximum; inactive = score below 0.9.
Returns: one label drawn from y (active), n (inactive)

Problem: I would be grateful if you could indicate the recorded call for `CCCCCCCCCCC` .
Solution: n

Problem: Which outcome was assigned to `O=C(OCCCCCOC(=O)c1ccccc1)c1ccccc1` in this test?
Solution: y

Problem: // param item: `Cc1ccccc1Cl` ; yields the recorded call
Solution: n

Problem: Please let me know the test result on file for `Nc1ccc2c(c1)C(=O)c1ccccc1C2=O` .
Solution: y

Problem: Which result was noted for this molecule in the test: `Cc1ccc(N(C)C)cc1`
Solution: n

Problem: Call for entry `CCCCCCCCCCCCCCCC` :
Solution: n

Problem: Kindly provide the recorded test outcome for the following molecule: `CCCCCCCCCCCCCO`
Solution: n

Problem: What is the recorded call for this molecule in the test? `O=[N+]([O-])C(CO)(CO)CO`
Solution: n

Problem: Please let me know the test result on file for `Cc1ccc(C(C)C)c(O)c1` .
Solution: n

Problem: // return assay outcome for `CC1(C)NC(=O)NC1=O`
Solution: n

Problem: Please indicate how the test categorized `Cc1ccc(C)c(C)c1` .
Solution: n

Problem: Identify the outcome logged in this assay for the molecule shown: `O=c1[nH]cc(F)c(=O)[nH]1`
Solution: n

Problem: Short answer needed: outcome of this test for `FC(F)(F)C(F)(F)C(F)(F)C(F)(F)C(F)(F)C(F)(F)CCI` ?
Solution: n

Problem: Dear all, I need the recorded test outcome for `Cc1cccc(C)c1O` , thank you.
Solution: n

Problem: # fetch the recorded call for `CC1=C(/C=C/C(C)=C/C=C/C(C)=C/CO)C(C)(C)CCC1` here
Solution: n

* * *

SYSTEM TESTED: human Acid Phosphatase 1 (ACP1), ACP1 (gene 52)
ASSAY: NVS_ENZ_hACP1: NovaScreen (NVS) Enzymatic Assay for human Acid Phosphatase 1 (ACP1) (AID 2283136)
Records with an inconclusive call do not appear. Activity calls are given as the source filed them. The calls were made as follows: active = hit-call score of the fitted dose curve at least 0.9, where 1 is the maximum; inconclusive = response in the unintended direction; inactive = score below 0.9.
OBSERVATION TYPE: outcome

> print(dat)
                            chemical.smiles  observation.type  measurement
1            O=C(O)Cc1ccccc1Nc1c(Cl)cccc1Cl           outcome     inactive
2                           Cc1ccc2ncccc2c1           outcome     inactive
3              CCOC(=O)C(C)(C)Oc1ccc(Cl)cc1           outcome     inactive
4                 CCCc1cc(=O)[nH]c(=S)[nH]1           outcome     inactive
5  FC(F)(F)C(F)(F)C(F)(F)C(F)(F)C(F)(F)C(F)(F)CCI           outcome     inactive

Now take the following compound into account.
Problem: Tell me outcome reported for `NCCO`
Solution: inactive
